Data credit: the supplement of paper PMC10981050

Tested on: OCI-AML2
EXPERIMENT_SUMMARY: cell viability relative to vehicle control; higher = less cytotoxic;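 also: after 48 h exposure read by CellTiter-Glo luminescence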
SETUP_CONDITIONS: 10 µM; SRSF2 genotype: P95H/wt
Structures can show the parent of a compound that is named as a salt.
RECORDED_METRIC: cell viability (%)
Just the number please, in %, no unit attached.

Observe how each entry below is paired with its result.
CCOC(=O)Nc1ccc(NCc2ccc(F)cc2)nc1N [Flupirtine maleate] :: 100
O=C(O)C(S)=Cc1c[nH]c2ccc(F)cc12 :: 106
COc1cc2c(cc1OC)CC(=O)N(CCCN(C)C[C@H]1Cc3cc(OC)c(OC)cc31)CC2 [Ivabradine HCl (Procoralan)] :: 95.8
CCCCCCCCCC(C)O (configuration not stated) :: 110
CNC(=O)CN1CCC(Oc2cc3c(Nc4cccc(Cl)c4F)ncnc3cc2OC)CC1 :: 73.8

QUERY: Report its cell viability with OCI-AML2 as the test system: CCCCc1oc2ccccc2c1C(=O)c1cc(I)c(OCCN(CC)CC)c(I)c1 [Amiodarone HCl]
RESULT: 42.8

QUERY: Give OCI-AML2 cell viability for the following compound: `C[C@H](CSC(=O)c1ccccc1)C(=O)N1C[C@@H](Sc2ccccc2)C[C@H]1C(=O)O`
RESULT: 116

* * *

Measured cell viability values are reported for all entries that follow.
Test system: MARIMO
EXPERIMENT_SUMMARY: cell viability relative to vehicle control; higher = less cytotoxic
SETUP_CONDITIONS: 10 µM; SRSF2 genotype: SRSF2 P95H/wt
Structures can show the parent of a compound that is named as a salt.
Give just the number in %; leave the unit off.

Please review the entries below; each comes with its answer.
CCc1ccc(C(=O)C(C)CN2CCCCC2)cc1 (stereo not drawn) [Eperisone hydrochloride] :: 81.3
O=C(N/N=C/c1ccc(O)c(O)c1)c1cc2ccccc2cc1O :: 72.8

QUERY: Given `CNc1nc(-c2ccc3c(N)n[nH]c3c2)cc(N2C[C@@H](C(=O)NC3CCCCC3)CC[C@H]2C)n1` , respond with its cell viability.
RESULT: 72.1

QUERY: For the molecule `NCCCCCC(=O)O` , give its reported cell viability.
RESULT: 101

QUERY: Quote cell viability reported for `Cc1[nH]nc2ccc(-c3cncc(OC[C@@H](N)Cc4ccccc4)c3)cc12` please.
RESULT: 7.82

QUERY: Indicate its recorded cell viability; the molecule in question is `CCS(=O)(=O)N1CCC([C@@H](C)n2c(C)c(C(=O)NCc3c(OC)cc(C)[nH]c3=O)c3ccccc32)CC1`
RESULT: 99.8

QUERY: Please indicate cell viability recorded for `CCN(CC)c1ccc(C=NNC(=O)c2ccc(O)cc2)cc1`
RESULT: 53.8

QUERY: Supply reported cell viability belonging to this molecule: `Cc1ccc2c(=O)c3cccc(CC(=O)O)c3oc2c1C`
RESULT: 89.9

* * *

compounds and their reported cell viability
Test system: OCI-AML2
EXPERIMENT_SUMMARY: cell viability relative to vehicle control; higher = less cytotoxic
SETUP_CONDITIONS: 10 µM; SRSF2 genotype: P95H/wt
Write down the numeric answer in % and omit the unit.

CCCc1cc(-c2nc(-c3ccc(C)cc3)cs2)ccn1 :: 34.2
CC(=O)O[C@]1(C(C)=O)CC[C@H]2[C@@H]3C=C(Cl)C4=CC(=O)[C@@H]5C[C@@H]5[C@]4(C)[C@H]3CC[C@@]21C [Cyproterone acetate] :: 75

Read the next record carefully.
QUERY: Report its cell viability with OCI-AML2 as the test system: CC(C)=CCCC(C)(OC1OC(COC2OCC(O)C(O)C2O)C(O)C(O)C1O)C1CCC2(C)C1C(O)CC1C3(C)CCC(OC4OC(CO)C(O)C(O)C4O)C(C)(C)C3CCC12C (stereo not drawn)
RESULT: 110
